biological target: furin, P09958; assay: furin cleavage Z-score vs untreated control; higher = more cleavage, active = 3.5 or more, inactive = 1 or less, 8 variable residues between constant flanks; conditions: 7.5 min;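 further: purified furin at 1:10 enzyme:substrate in 50 mM HEPES pH 7.5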
Sequence (P09958 whole entry): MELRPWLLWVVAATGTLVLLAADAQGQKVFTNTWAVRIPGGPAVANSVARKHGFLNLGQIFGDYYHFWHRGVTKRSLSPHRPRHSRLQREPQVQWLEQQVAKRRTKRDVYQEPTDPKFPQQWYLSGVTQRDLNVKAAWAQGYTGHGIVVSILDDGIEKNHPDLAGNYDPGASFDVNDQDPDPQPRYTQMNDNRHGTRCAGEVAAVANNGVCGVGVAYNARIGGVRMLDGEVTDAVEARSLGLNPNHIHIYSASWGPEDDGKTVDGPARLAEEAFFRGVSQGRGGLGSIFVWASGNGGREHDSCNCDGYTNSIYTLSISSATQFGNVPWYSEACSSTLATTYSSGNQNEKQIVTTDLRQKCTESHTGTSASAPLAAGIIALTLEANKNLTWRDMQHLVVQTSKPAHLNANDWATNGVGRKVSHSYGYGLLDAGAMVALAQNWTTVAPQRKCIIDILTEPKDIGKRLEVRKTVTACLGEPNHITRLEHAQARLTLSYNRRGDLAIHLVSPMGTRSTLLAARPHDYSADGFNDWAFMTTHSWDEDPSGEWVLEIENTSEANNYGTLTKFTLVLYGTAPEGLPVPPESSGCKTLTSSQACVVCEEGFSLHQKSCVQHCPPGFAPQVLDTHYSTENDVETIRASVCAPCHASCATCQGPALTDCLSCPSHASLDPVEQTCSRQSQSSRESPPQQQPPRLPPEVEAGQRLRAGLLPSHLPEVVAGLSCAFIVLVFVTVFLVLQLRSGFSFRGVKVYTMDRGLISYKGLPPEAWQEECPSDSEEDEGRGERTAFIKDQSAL
The list shows a part of the results. No count for the full screen is at hand.
Everything with furin cleavage Z-score lower than 3 is f; everything else, including exactly 3, is t.

Reference set (6 entries):
CONSTRUCT SEQUENCE	ANSWER LABEL
CARSRRLQQRAGNASASA [FS-2090]	f
CAEVVASTWVAGNASASA [HC121]	f
CATTTRKNRSAGNASASA [FS-1498]	t
CAPRARKNRSAGNASASA [FS-949]	t
CAMGGNITRVAGNASASA [HC1279]	f
CAPRARSRRSAGNASASA [FS-1053]	t

# check: furin cleavage Z-score of CAPFSRVPRKAGNASASA [FS-1380] is greater than or equal to 3
t

# check: furin cleavage Z-score of CAALEVVTSTAGNASASA [HC2263] is greater than or equal to 3
f

# check: furin cleavage Z-score of CAERKRIKRAAGNASASA [FS-650] is greater than or equal to 3
t

# check: furin cleavage Z-score of CAVHGCPLPPAGNASASA [HC1316] is greater than or equal to 3
f

# check: furin cleavage Z-score of CALRAYMNTPAGNASASA [HC930] is greater than or equal to 3
f

# check: furin cleavage Z-score of CAEVVTATWVAGNASASA [HC141] is greater than or equal to 3
f

# check: furin cleavage Z-score of CALWMMLLISAGNASASA [HC528] is greater than or equal to 3
f

# check: furin cleavage Z-score of CALVILNAASAGNASASA [HC536] is greater than or equal to 3
f

# check: furin cleavage Z-score of CARTRRYYLSAGNASASA [FS-3112] is greater than or equal to 3
f

# check: furin cleavage Z-score of CAERKRECQLAGNASASA [FS-1670] is greater than or equal to 3
f
